# maps each entry to its IC50
Test system: Leishmania donovani
MEASUREMENT_DESCRIPTION: Antimicrobial activity against wild-type Leishmania donovani AG83 promastigote assessed as inhibition of parasite growth after 72 hrs by MTS assay
Assay type: functional, organism-based
CONDITIONS: AG83, 72 h
Answer in nM, number only, no unit symbol.

# CHEM_SMILES, IC50 / nM
rows = [
    ("O=c1cc(-c2ccc(OCCOCCN(CCCc3ccccc3)CCOCCOc3ccc(-c4cc(=O)c5ccccc5o4)cc3)cc2)oc2ccccc12", 8900),
    ("O=c1cc(-c2ccc(OCCOCCOCCOCCOCCOc3ccc(-c4cc(=O)c5c(O)cc(O)cc5o4)cc3)cc2)oc2cc(O)cc(O)c12", 2300),
]

With those in mind, consider the next molecule.
Output measured IC50 for this item: `Cc1ccc2oc(-c3ccc(OCCOCCOCCOCCOCCOCCOc4ccc(-c5cc(=O)c6cc(C)ccc6o5)cc4)cc3)cc(=O)c2c1`
2200

---

Tested on: Leishmania donovani
MEASUREMENT_DESCRIPTION: Antimicrobial activity against wild-type Leishmania donovani AG83 promastigote assessed as inhibition of parasite growth after 72 hrs by MTS assay
Assay type: functional, organism-based
CONDITIONS: AG83, 72 h
# maps each entry to its pIC50
The value called pIC50 is obtained by taking minus log10 of the concentration in mol/L.

// below: answered compounds
# CHEM_SMILES, pIC50
rows = [
    ("O=c1cc(-c2ccc(OCCOCCOCCOCCOCCOCCOc3ccc(-c4cc(=O)c5ccc(F)cc5o4)cc3)cc2)oc2cc(F)ccc12", 5.38),
    ("O=c1c(OCCOCCN(CCOCCOc2c(-c3ccccc3)oc3ccccc3c2=O)Cc2ccncc2)c(-c2ccccc2)oc2ccccc12", 5.60),
    ("O=c1cc(-c2ccc(OCCOCCOCCOCCOCCOCCOc3ccc(-c4cc(=O)c5ccccc5o4)cc3)cc2)oc2ccccc12", 5.32),
    ("O=c1cc(-c2ccc(OCCOCCN(CCOCCOc3ccc(-c4cc(=O)c5ccccc5o4)cc3)Cc3ccnc4ccccc34)cc2)oc2ccccc12", 4.69),
    ("O=c1cc(-c2ccc(OCCOCCOCCOCCOCCOc3ccc(-c4cc(=O)c5ccccc5o4)cc3)cc2)oc2ccccc12", 5.28),
    ("O=c1cc(-c2ccc(OCCOCCOCCOCCOCCOCCOCCOc3ccc(-c4cc(=O)c5ccccc5o4)cc3)cc2)oc2ccccc12", 5.21),
]

Output measured pIC50 for this item: `C[C@@H]1[C@H](O)[C@@H](C)/C=C/C=C/C=C/C=C/C=C/C=C/C=C/[C@H](O[C@@H]2O[C@H](C)[C@@H](O)[C@H](N)[C@@H]2O)C[C@@H]2O[C@](O)(C[C@@H](O)C[C@@H](O)[C@H](O)CC[C@@H](O)C[C@@H](O)CC(=O)O[C@H]1C)C[C@H](O)[C@H]2C(=O)O`
7.05

Output measured pIC50 for this item: `O=c1cc(-c2ccc(OCCOCCN(CCOCCOc3ccc(-c4cc(=O)c5ccccc5o4)cc3)Cc3cccnc3)cc2)oc2ccccc12`
6.25

Output measured pIC50 for this item: `CCc1ccc2oc(-c3ccc(OCCOCCOCCOCCOCCOc4ccc(-c5cc(=O)c6cc(CC)ccc6o5)cc4)cc3)cc(=O)c2c1`
5.33

Output measured pIC50 for this item: `Cc1ccc(S(=O)(=O)N(CCOCCOc2ccc(-c3cc(=O)c4ccccc4o3)cc2)CCOCCOc2ccc(-c3cc(=O)c4ccccc4o3)cc2)cc1`
4.00

Origin of the recorded values: ChEMBL document CHEMBL2169835
